details: 317.4 K; 101.33 kPa; Liquid; Pulse-echo method
Documented speed of sound across a set of compounds
Response body: numeric value in m/s, unit text excluded.

Item CCC(=O)[O-].C[NH2+]CCO [2-hydroxy-N-methylethanaminium propionate] has what recorded speed of sound?
1633.2

---

conditions: 307.9 K; 101.33 kPa; Liquid; Pulse-echo method
± gives the expanded uncertainty stated by the source.
PARAMETER MEASURED: speed of sound

Please review the entries below; each comes with its answer.
COMPOUND | speed of sound
CCCC(=O)[O-].C[NH2+]CCO [N-methyl-2-hydroxyethylammonium butanoate] | 1583.8 ± 2.1 m/s
C[NH2+]CCO.O=C[O-] [2-hydroxy-N-methylethanaminium formate] | 1796.3 ± 2.2 m/s
CCC(=O)[O-].C[NH2+]CCO [2-hydroxy-N-methylethanaminium propionate] | 1661.2 ± 2.1 m/s
CCCCC(=O)[O-].C[NH2+]CCO [2-hydroxy-N-methylethanaminium pentanoate] | 1518.4 ± 2.1 m/s

// moving on: another record for speed of sound
What measured speed of sound goes with CC(C)C(=O)[O-].C[NH2+]CCO [2-hydroxy-N-methylethanaminium isobutyrate] ?
1583.8 ± 2.1 m/s

---

settings: 280.15 K; 101.33 kPa; Liquid; Pulse-echo method
PARAMETER MEASURED: speed of sound (m/s)
Supply the numeric figure in m/s, leaving out any unit text.

COMPOUND | UNIT | RECORDED MEASUREMENT
C[NH2+]CCO.O=C[O-] [2-hydroxy-N-methylethanaminium formate] | m/s | 1850.7
CCCC(=O)[O-].C[NH2+]CCO [N-methyl-2-hydroxyethylammonium butanoate] | m/s | 1675.8
CC(C)C(=O)[O-].C[NH2+]CCO [2-hydroxy-N-methylethanaminium isobutyrate] | m/s | 1663.9
CCC(=O)[O-].C[NH2+]CCO [2-hydroxy-N-methylethanaminium propionate] | m/s | 1745.6

Shifting focus to the compound that follows.
Please look up its speed of sound: CCCCC(=O)[O-].C[NH2+]CCO [2-hydroxy-N-methylethanaminium pentanoate]
1609.1

---

details: 300.4 K; 101.33 kPa; Liquid; Vibrating tube method
Here the recorded mass density is given for each entry.
Lab book: enter the figure in kg/m3, no units written.

Some entries whose results are on file:
COMPOUND | mass density, kg/m3
CCCCC(=O)[O-].C[NH2+]CCO [2-hydroxy-N-methylethanaminium pentanoate] | 1014.69
C[NH2+]CCO.O=C[O-] [2-hydroxy-N-methylethanaminium formate] | 1126.99
CC(=O)[O-].C[NH2+]CCO [N-methyl-2-hydroxyethylammonium acetate] | 1099.48
CC(C)C(=O)[O-].C[NH2+]CCO [2-hydroxy-N-methylethanaminium isobutyrate] | 1041.93
CCCC(=O)[O-].C[NH2+]CCO [N-methyl-2-hydroxyethylammonium butanoate] | 1037.71

Now for a further compound.
Please look up its mass density: CCC(=O)[O-].C[NH2+]CCO [2-hydroxy-N-methylethanaminium propionate]
1069.83

---

conditions: 308.9 K; 101.33 kPa; Liquid; Vibrating tube method
PARAMETER MEASURED: mass density (kg/m3)
Just the number in kg/m3, nothing appended.

Below: 5 molecules and their reported mass density.
MOLECULE | RECORDED MEASUREMENT
CCCCC(=O)[O-].C[NH2+]CCO [2-hydroxy-N-methylethanaminium pentanoate] | 1009.01
CC(=O)[O-].C[NH2+]CCO [N-methyl-2-hydroxyethylammonium acetate] | 1094.37
CCCC(=O)[O-].C[NH2+]CCO [N-methyl-2-hydroxyethylammonium butanoate] | 1032.03
CCC(=O)[O-].C[NH2+]CCO [2-hydroxy-N-methylethanaminium propionate] | 1064.3
C[NH2+]CCO.O=C[O-] [2-hydroxy-N-methylethanaminium formate] | 1122.25

Turning now to a further molecule:
Value lookup for mass density; key = CC(C)C(=O)[O-].C[NH2+]CCO [2-hydroxy-N-methylethanaminium isobutyrate]
1036.44

---

conditions: 328.66 K; 101.33 kPa; Liquid; Vibrating tube method
PARAMETER MEASURED: mass density (kg/m3)
Answer in kg/m3, number only, no unit symbol.

MOLECULE | mass density, kg/m3
CCCCC(=O)[O-].C[NH2+]CCO [2-hydroxy-N-methylethanaminium pentanoate] | 995.401
C[NH2+]CCO.O=C[O-] [2-hydroxy-N-methylethanaminium formate] | 1111.33
CCC(=O)[O-].C[NH2+]CCO [2-hydroxy-N-methylethanaminium propionate] | 1051.1
CCCC(=O)[O-].C[NH2+]CCO [N-methyl-2-hydroxyethylammonium butanoate] | 1018.42
CC(C)C(=O)[O-].C[NH2+]CCO [2-hydroxy-N-methylethanaminium isobutyrate] | 1023.33

What value of mass density has been reported for the following molecule? CC(=O)[O-].C[NH2+]CCO [N-methyl-2-hydroxyethylammonium acetate]
1082.18

---

details: 318.9 K; 101.33 kPa; Liquid; Vibrating tube method
PARAMETER MEASURED: mass density (kg/m3)
Kindly answer with a numeric value in kg/m3, unit omitted.

Example cases with answers are listed next.
MOLECULE | PARAMETER MEASURED | RECORDED MEASUREMENT
CC(=O)[O-].C[NH2+]CCO [N-methyl-2-hydroxyethylammonium acetate] | mass density | 1088.26
CCCCC(=O)[O-].C[NH2+]CCO [2-hydroxy-N-methylethanaminium pentanoate] | mass density | 1002.18
CCCC(=O)[O-].C[NH2+]CCO [N-methyl-2-hydroxyethylammonium butanoate] | mass density | 1025.2
CCC(=O)[O-].C[NH2+]CCO [2-hydroxy-N-methylethanaminium propionate] | mass density | 1057.67
CC(C)C(=O)[O-].C[NH2+]CCO [2-hydroxy-N-methylethanaminium isobutyrate] | mass density | 1029.87

May I ask what mass density has been recorded for C[NH2+]CCO.O=C[O-] [2-hydroxy-N-methylethanaminium formate] ?
1116.69

---

settings: 322.91 K; 101.33 kPa; Liquid; Pulse-echo method
PARAMETER MEASURED: speed of sound (m/s)
Number only, in m/s; omit the unit.

Illustrative cases are given below, each with its answer.
MOLECULE | PARAMETER MEASURED | RECORDED MEASUREMENT
C[NH2+]CCO.O=C[O-] [2-hydroxy-N-methylethanaminium formate] | speed of sound | 1767.2
CC(C)C(=O)[O-].C[NH2+]CCO [2-hydroxy-N-methylethanaminium isobutyrate] | speed of sound | 1541.3
CCCCC(=O)[O-].C[NH2+]CCO [2-hydroxy-N-methylethanaminium pentanoate] | speed of sound | 1472.3
CCC(=O)[O-].C[NH2+]CCO [2-hydroxy-N-methylethanaminium propionate] | speed of sound | 1616.7

Tell me the measured speed of sound of CCCC(=O)[O-].C[NH2+]CCO [N-methyl-2-hydroxyethylammonium butanoate] , please.
1537

---

Some molecules, each annotated with its measured speed of sound.
settings: 326.16 K; 101.33 kPa; Liquid; Pulse-echo method
Numeric only. Scale: m/s

MOLECULE | RECORDED MEASUREMENT
CCCC(=O)[O-].C[NH2+]CCO [N-methyl-2-hydroxyethylammonium butanoate] | 1526.9
CC(C)C(=O)[O-].C[NH2+]CCO [2-hydroxy-N-methylethanaminium isobutyrate] | 1532.1
CCCCC(=O)[O-].C[NH2+]CCO [2-hydroxy-N-methylethanaminium pentanoate] | 1462.4
CCC(=O)[O-].C[NH2+]CCO [2-hydroxy-N-methylethanaminium propionate] | 1606.9

Consider the additional molecule presented here.
Using the record for C[NH2+]CCO.O=C[O-] [2-hydroxy-N-methylethanaminium formate] , report its speed of sound.
1760.9

---

conditions: 292.9 K; 101.33 kPa; Liquid; Pulse-echo method
Numbers after ± are expanded uncertainties.
PARAMETER MEASURED: speed of sound
Don't forget the unit after the number, please.

# annotated cases, reported speed of sound shown
MOLECULE | speed of sound
C[NH2+]CCO.O=C[O-] [2-hydroxy-N-methylethanaminium formate] | 1825.6 ± 2.2 m/s
CCCCC(=O)[O-].C[NH2+]CCO [2-hydroxy-N-methylethanaminium pentanoate] | 1565.5 ± 2.1 m/s
CC(C)C(=O)[O-].C[NH2+]CCO [2-hydroxy-N-methylethanaminium isobutyrate] | 1626.2 ± 2.1 m/s
CCC(=O)[O-].C[NH2+]CCO [2-hydroxy-N-methylethanaminium propionate] | 1705.6 ± 2.2 m/s

Please examine the following record next.
Report speed of sound for CCCC(=O)[O-].C[NH2+]CCO [N-methyl-2-hydroxyethylammonium butanoate] please.
1631.5 ± 2.1 m/s

---

conditions: 318.65 K; 101.33 kPa; Liquid; Vibrating tube method
Numbers after ± are expanded uncertainties.
PARAMETER MEASURED: mass density
Please provide the amount together with its unit, number first.

COMPOUND | mass density
CC(C)C(=O)[O-].C[NH2+]CCO [2-hydroxy-N-methylethanaminium isobutyrate] | 1030.03 ± 2.2 kg/m3
CCCC(=O)[O-].C[NH2+]CCO [N-methyl-2-hydroxyethylammonium butanoate] | 1025.37 ± 2.2 kg/m3

Entry C[NH2+]CCO.O=C[O-] [2-hydroxy-N-methylethanaminium formate] has what mass density?
1116.82 ± 2.2 kg/m3
